The following substances are listed with their measured % of CAG foci positive nuclei (DNA-PKi) values.
- System: CAG foci in primary DM1 patient myoblasts
- procedure_text: Single-cut screening: CAG foci staining
- Type: cell-based, human
- condition: single sgRNA, DNA-PKi treated
Report the value in % with no unit label.

Guide cases for % of CAG foci positive nuclei (DNA-PKi), answers given:
substance	% of CAG foci positive nuclei (DNA-PKi), %
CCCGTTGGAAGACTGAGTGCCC (listed as DNA, chemistry not fully specified) [SluU10]	0.66
CCTCCGACTCGCTGACAGGCTA (guide RNA; chemistry not fully specified) [SluD67]	1.8
CGCCCAGCTCCAGTCCTGTGAT (guide RNA; chemistry not fully specified) [SluU27]	1.94
CAGTTCACAACCGCTCCGAGCG (guide RNA; chemistry not fully specified) [SluU23]	1.53
TTTATTCGCGAGGGTCGGGGGT (guide RNA; chemistry not fully specified) [SluD91]	4.23

[in] Which value of % of CAG foci positive nuclei (DNA-PKi) has been reported for CCCCGGGCACTCAGTCTTCCAA (guide RNA; chemistry not fully specified) [SluU12] in the records?
[out] 1.38

[in] Which measured % of CAG foci positive nuclei (DNA-PKi) value corresponds to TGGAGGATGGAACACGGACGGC (listed as DNA, chemistry not fully specified) [SluD18] ?
[out] 1.55

[in] Given the entry ACAATAAATACCGAGGAATGTC (guide RNA; chemistry not fully specified) [SluD80] , report its measured % of CAG foci positive nuclei (DNA-PKi).
[out] 1.49

[in] Which % of CAG foci positive nuclei (DNA-PKi) value belongs to GCCCCGGGCACTCAGTCTTCCA (guide RNA; chemistry not fully specified) [SluU13] ?
[out] 1.07

[in] Given CCCGGGCACTCAGTCTTCCAAC (guide RNA; chemistry not fully specified) [SluU11] , state its recorded % of CAG foci positive nuclei (DNA-PKi).
[out] 1.27

[in] Given the substance CGCCGAAGCGGGCGGAGCCGGC (guide RNA; chemistry not fully specified) [SluD58] , what is its reported % of CAG foci positive nuclei (DNA-PKi)?
[out] 1.96

[in] Any idea what its % of CAG foci positive nuclei (DNA-PKi) is? The substance is GGCCCGCCCCCTAGCggccggg (guide RNA; as printed in the source, key not given here) [SluU38]
[out] 1.56

---

- Tested on: CAG foci in primary DM1 patient myoblasts
- procedure_text: Single-cut screening: CAG foci staining
- Format: cell-based, human
- condition: single sgRNA, DNA-PKi treated
measured_endpoint: % of CAG foci positive nuclei (DNA-PKi) (%)
Return type: number; implicit unit %.

Some substances with known % of CAG foci positive nuclei (DNA-PKi) results, for comparison:
substance	readout_units	% of CAG foci positive nuclei (DNA-PKi)
CGAGAGCAGCGCAAGTGAGGAG (guide RNA; chemistry not fully specified) [SluD49]	%	2.3
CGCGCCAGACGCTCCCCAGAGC (listed as DNA, chemistry not fully specified) [SluD34]	%	2.01
CCGAGAGCAGCGCAAGTGAGGA (guide RNA; chemistry not fully specified) [SluD50]	%	2.2
GGGCCTTTTATTCGCGAGGGTC (guide RNA; chemistry not fully specified) [SluD95]	%	2.19
GCACTTTGCGAACCAACGATAG (guide RNA; chemistry not fully specified) [SluD28]	%	1.29
AGACAATAAATACCGAGGAATG (guide RNA; chemistry not fully specified) [SluD82]	%	2.02

Now for another entry.
[in] // returns reported % of CAG foci positive nuclei (DNA-PKi) for input TCCGGGCCCGCCCCCTAGCggc (guide RNA; as printed in the source, key not given here) [SluU36]
[out] 1.96
